Test system: 786-0 renal
Assay: NCI-60 one-dose screen, 48 h
Conditions: 10 µM unless noted
Experimental: Cells are grown in 96 well plates and exposed to the test compound for 48 hours. Compounds are tested at a single concentration, which is 10^-5 M for most compounds. The reported endpoint is percent growth (GI% or GIPRCNT), where numbers from 0 - 100% represent growth inhibition, and numbers from -100% - 0 represent cell death. For example, a value of 40 represents 60% growth inhibition. A value of 0 means no net growth occurred over the course of the experiment. […]
Compounds without any hit were thinned out: in the full panel of roughly 83,000, 20% have a hit. Activity calls are given as the source filed them. The calls were made as follows: active = growth percent below 10; inactive = the rest.
# valid calls are active, inactive; nothing else

See these solved cases before continuing.
compound	category
CC(=O)Oc1ccccc1C(=O)/C=C/c1cccc([N+](=O)[O-])c1	inactive
N#CC1=C(N)Oc2ccc3ccccc3c2C1c1ccccc1 (centres undefined)	inactive
O=[N+]([O-])c1ccc(N/N=C(\C(=N/Nc2ccc([N+](=O)[O-])cc2[N+](=O)[O-])c2ccccc2)c2ccccc2)c([N+](=O)[O-])c1	inactive

Please look at the following compound next.
Can you look up the reported call for COc1cccc(-c2nn(-c3ccccc3)cc2-c2ccnc(NCCCO)c2)c1 for me?
inactive

* * *

Test system: TK-10 renal
Assay: NCI-60 one-dose screen, 48 h (100 = growth as untreated, 0 = no growth, -100 = all killed)
Settings: 10 µM unless noted
This is part of a sample that, as a whole, favours compounds with a hit. Of some 83,000 tested, about 20% had one in any assay.
outcome_measure: growth (%)
Numbers only, in %.

These recorded examples may help you get a feel for the data.
In [3]: df
Out[3]:
                                   molecule  outcome_measure  unit_symbol  quantitative_readout
0  Cc1ccc(Sc2sc(-c3ccccc3)nc2[P+](c2ccccc2)(c2ccccc2)c2ccccc2)cc1           growth            %                  14.7
1          CC(C)(C)c1nc(-c2ccc(O)c(O)c2)cs1           growth            %                  89.2
2  Cc1cc(N(CCNc2ccnc3cc(Cl)ccc23)Cc2ccco2)nc(Cl)n1           growth            %                 -74.4
3            O=C(/C=C/c1cccc(O)c1)c1ccccc1O           growth            %                   121
4  Cn1cc(-c2csc(-c3cn(CCN)c4ccc(Br)cc34)n2)c2cccnc21           growth            %                   116

Look at each molecule and report its growth.
1. O=C(CCCCCn1c2ccccc2c2c3c(c4c5ccccc5[nH]c4c21)C(=O)N(O)C3=O)N1CCOCC1
2. N#CC1=C(N)Oc2ccc3ccccc3c2C1c1ccccc1 (centres undefined)
3. CN(CSc1ccc(Cl)cc1)c1ccc(CSc2ccc(Cl)cc2)cc1
4. Cc1ccc(Cc2cnc(NC(=O)/C=C/c3cccc(C)c3)s2)cc1
5. Fc1ccc(Nc2nc(Nc3ccc(-c4nc5ccccc5[nH]4)cc3)nc(N3CCCC3)n2)cc1
6. N#CC1C(=N)Cc2ccccc2-c2ccccc21 (centres undefined)

1: 70.7; 2: 121; 3: 87.1; 4: 28.3; 5: 151; 6: 78.1

Give growth for all molecules that follow.
1. C#Cc1cc2c(N)c(C(=O)c3cc(OC)c(OC)c(OC)c3)[nH]c2cc1OC
2. Cc1cc(Cl)c2c(N(C)C)cccc2n1

1. 58.6
2. 125

For every listed record, write down its growth.
1. C=C(C)[C@@H]1CC[C@]2(C(=O)O)CC[C@]3(C)[C@H](CC[C@@H]4[C@@]5(C)C/C(=C/c6cccc(I)c6)C(=O)C(C)(C)[C@@H]5CC[C@]43C)[C@@H]12
2. OCC(CO)(CCl)CCl
3. CC1(C)C(=O)/C(=C\c2ccco2)C[C@]2(C)[C@H]3CC[C@@H]4[C@@H](C(=O)/C=C/c5ccco5)CC[C@@]4(C)[C@]3(C)CC[C@@H]12

29.6
95
107

Lab note: each molecule below needs its growth filled in.
1. COc1cc(-c2cc(-c3nc4cc(Cl)c(Cl)cc4[nH]3)[nH]n2)cc(OC)c1OC
2. COc1cc2c(cc1OC)C(=O)/C(=C/c1cc(-c3ccc4c(c3)OCO4)n[nH]1)C2
3. Oc1ccccc1/C=N\NC(=S)Nc1ccc(F)cc1
4. N#Cc1cnc2cc(OC[C@@H](O)CO)c(NC(=O)CC3CSSC3)cc2c1Nc1ccc(OCc2cccc(F)c2)c(Cl)c1
5. Cn1cc(-c2csc(-c3cn(CCCN4CCCCC4)c4ccc(Br)cc34)n2)c2cccnc21

107
-9.8
49.1
-60.5
26.7

* * *

System: OVCAR-5 ovarian
Test: NCI-60 one-dose screen, 48 h (100 = growth as untreated, 0 = no growth, -100 = all killed)
Settings: 10 µM unless noted
Compounds without any hit were thinned out: in the full panel of roughly 83,000, 20% have a hit.
outcome_measure: growth (%)
One number for each entry, in %.

Consider the following illustrative entries.
compound	target_under_test	quantitative_readout
COC(=O)[C@]12CC[C@@H](C)[C@H](C)[C@@H]1C1=CC(=O)[C@@H]3[C@@]4(C)C[C@@H](OC(C)=O)[C@H](OC(C)=O)[C@@](C)(COC(C)=O)[C@@H]4C(=O)C[C@@]3(C)[C@]1(C)CC2	OVCAR-5 ovarian	84.4
NCCn1cc(-c2nc(-c3c[nH]c4ncccc34)cs2)c2ccccc21	OVCAR-5 ovarian	102
O=S(=O)(NCCNc1cc(-c2cn(-c3ccccc3)nc2-c2cccc(O)c2)ccn1)c1ccc(Br)cc1	OVCAR-5 ovarian	50
Cn1c(=O)c2c(nc(Br)n2CC(=O)Nc2ccc(F)cc2)n(C)c1=O	OVCAR-5 ovarian	103
Nc1c2c(nc3ccc(Cl)cc13)CC(c1ccccc1)CC2=O (stereo not drawn)	OVCAR-5 ovarian	73.2

Would you be so kind as to report growth for each listed record?
1. c1cc(N2CCCC2)c2nc(-c3[nH]ncc3Nc3ncnc4[nH]ccc34)[nH]c2c1
2. COc1cc(OC)c2c(c1)c1nc3cc(C)c(C)cc3nc1n2CCN(C)C
3. COc1ccc(OC)c(-c2c(C#N)c(-c3ccco3)nc3c2c(-c2ccccc2)nn3-c2ccccc2)c1
4. Nc1c(C(=O)Nc2c(Cl)cccc2Cl)sc2nc3c(cc12)CCCC3
5. O=C(CI)Nc1ccc(O)c2ccccc12
6. C[C@@H](C(=O)O)c1ccc2c3cc(Cl)ccc3n(Cc3cc(=O)oc4ccc(Cl)cc34)c2c1
7. COc1ccc(-c2nc(SCC(=O)Nc3ccc(C(C)=O)cc3)[nH]c(=O)c2C#N)cc1

1. -9.59
2. 105
3. 95.5
4. 105
5. 18.5
6. 97.3
7. 97.3

* * *

Test system: 786-0 renal
Assay: NCI-60 one-dose screen, 48 h (100 = growth as untreated, 0 = no growth, -100 = all killed)
Settings: 10 µM unless noted
The panel holds about 83,000 compounds, 20% with a hit somewhere; the sample as a whole holds those more often.
What growth was measured for each of the following?
One number for each entry, in %.

molecule	growth, %
Nc1nc(N)c2nc3c(nc2n1)CCCCCCCCCC3	31.9

Record growth for all entries; do not skip any.
1. NC(N)=N/N=C/c1ccc(-c2ccc(-c3ccc(Cl)cn3)s2)cc1
2. Cn1cc(-c2csc(-c3cn(CCNC(=O)OC(C)(C)C)c4ccc(F)cc34)n2)c2cccnc21
3. Cn1c(=O)c2c(ncn2CCC(=O)Nc2ccc(F)cc2)n(C)c1=O
4. CN1CCN(c2ccc3nc(-c4[nH]ncc4Nc4ncnc5[nH]ccc45)[nH]c3c2)CC1
5. O=C(/C=C/c1cccc2ccccc12)Nc1ncc(Cc2ccccc2)s1

1. 63.8
2. 88.1
3. 95.1
4. 2.96
5. 34.3

* * *

System: HOP-92 NSCLC
Assay: NCI-60 one-dose screen, 48 h
Details: 10 µM unless noted
Procedure: Growth inhibition of the HOP-92 human Non-Small Cell Lung tumor cell line is measured as a screen for anti-cancer activity. Cells are grown in 96 well plates and exposed to the test compound for 48 hours. Compounds are tested at a single concentration, which is 10^-5 M for most compounds. The reported endpoint is percent growth (GI% or GIPRCNT), where numbers from 0 - 100% represent growth inhibition, and numbers from -100% - 0 represent cell death. […]
This is part of a sample that, as a whole, favours compounds with a hit. Of some 83,000 tested, about 20% had one in any assay. The source made the active and inactive calls. Rule for the calls: active = growth percent below 10; inactive = the rest.
// classify into active, inactive

Solved entries:
smiles_entry	target_under_test	category
CC(=O)n1c(/C(C#N)=C/c2ccc(N(C)C)cc2)cc2ccccc21	HOP-92 NSCLC	inactive
O=C(/C=C/c1cccc2ccccc12)Nc1ncc(Cc2ccccc2)s1	HOP-92 NSCLC	inactive

Returns: the outcome recorded for Cn1cc(-c2nc(-c3cn(C)c4ncccc34)cs2)c2ccccc21 in this assay.
inactive

What was the test verdict on O=C1/C(=C\c2ccco2)SC(=S)N1CCc1ccc(O)cc1 ?
inactive

Query: recorded result category for COc1ccc(C(=O)/C=C/c2cc(-c3cc(OC)c(OC)c(OC)c3)n[nH]2)cc1OC in this test
inactive

Could you kindly confirm the outcome this assay logged for Cc1nc([P+](c2ccccc2)(c2ccccc2)c2ccccc2)c(Sc2sc(-c3ccccc3)nc2[P+](c2ccccc2)(c2ccccc2)c2ccccc2)o1 ?
active

What is the recorded call for this molecule in the test? Cn1cc(-c2csc(-c3cn(CCNC(=O)OC(C)(C)C)c4ccc(F)cc34)n2)c2cccnc21
inactive

Status in this test for O=c1[nH]ncc(Br)c1Br ?
inactive

Returns: the outcome recorded for N#CCCCCCn1c2ccccc2c2c3[nH]c(=O)[nH]c(=O)c3c3c4ccccc4n(CCCCCC#N)c3c21 in this assay.
inactive

Hi, do you know how COc1ccc(-c2cc(-c3cccs3)n(N=O)c(=O)c2C#N)cc1 came out in this test?
inactive

The measured values listed here are drawn from PubChem BioAssay (NCI).
